- test_system: Recombinant PRC2 (EZH2-Y641F) (Homo sapiens, UniProt Q15910, Y641F)
- Sequence (Q15910 whole entry Y641F): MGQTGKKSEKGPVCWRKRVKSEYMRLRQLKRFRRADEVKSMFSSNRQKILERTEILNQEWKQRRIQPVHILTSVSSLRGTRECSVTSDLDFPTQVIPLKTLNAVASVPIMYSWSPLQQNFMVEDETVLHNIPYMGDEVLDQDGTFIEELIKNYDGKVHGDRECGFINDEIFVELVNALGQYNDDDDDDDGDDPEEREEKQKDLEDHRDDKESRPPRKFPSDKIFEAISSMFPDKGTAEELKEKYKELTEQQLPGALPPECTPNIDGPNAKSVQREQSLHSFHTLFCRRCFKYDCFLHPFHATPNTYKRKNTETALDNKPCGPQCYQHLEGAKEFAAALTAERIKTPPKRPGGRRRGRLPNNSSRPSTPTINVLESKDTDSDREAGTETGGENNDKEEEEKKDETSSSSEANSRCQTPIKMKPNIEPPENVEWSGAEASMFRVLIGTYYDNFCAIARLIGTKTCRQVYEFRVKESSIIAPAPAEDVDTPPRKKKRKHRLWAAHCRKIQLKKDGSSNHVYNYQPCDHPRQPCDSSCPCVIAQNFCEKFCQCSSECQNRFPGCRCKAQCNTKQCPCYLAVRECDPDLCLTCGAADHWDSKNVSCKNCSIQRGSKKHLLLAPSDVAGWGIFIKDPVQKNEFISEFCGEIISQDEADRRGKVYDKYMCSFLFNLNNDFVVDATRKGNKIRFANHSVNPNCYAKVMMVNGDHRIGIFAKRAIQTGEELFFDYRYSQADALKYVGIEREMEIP
- Sequence (O75530 whole entry partner): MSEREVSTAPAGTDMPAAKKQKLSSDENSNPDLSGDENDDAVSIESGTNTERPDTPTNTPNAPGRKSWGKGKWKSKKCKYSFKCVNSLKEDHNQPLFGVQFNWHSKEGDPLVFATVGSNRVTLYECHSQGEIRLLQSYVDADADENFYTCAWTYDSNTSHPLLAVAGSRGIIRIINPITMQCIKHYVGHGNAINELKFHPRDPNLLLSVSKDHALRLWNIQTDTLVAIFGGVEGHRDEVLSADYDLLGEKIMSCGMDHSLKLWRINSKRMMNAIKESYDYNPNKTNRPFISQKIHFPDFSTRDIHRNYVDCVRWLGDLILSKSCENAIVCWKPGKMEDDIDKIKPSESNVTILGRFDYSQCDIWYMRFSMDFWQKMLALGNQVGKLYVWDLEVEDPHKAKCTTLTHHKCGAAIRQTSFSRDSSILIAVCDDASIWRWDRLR
- Sequence (Q15022 whole entry partner): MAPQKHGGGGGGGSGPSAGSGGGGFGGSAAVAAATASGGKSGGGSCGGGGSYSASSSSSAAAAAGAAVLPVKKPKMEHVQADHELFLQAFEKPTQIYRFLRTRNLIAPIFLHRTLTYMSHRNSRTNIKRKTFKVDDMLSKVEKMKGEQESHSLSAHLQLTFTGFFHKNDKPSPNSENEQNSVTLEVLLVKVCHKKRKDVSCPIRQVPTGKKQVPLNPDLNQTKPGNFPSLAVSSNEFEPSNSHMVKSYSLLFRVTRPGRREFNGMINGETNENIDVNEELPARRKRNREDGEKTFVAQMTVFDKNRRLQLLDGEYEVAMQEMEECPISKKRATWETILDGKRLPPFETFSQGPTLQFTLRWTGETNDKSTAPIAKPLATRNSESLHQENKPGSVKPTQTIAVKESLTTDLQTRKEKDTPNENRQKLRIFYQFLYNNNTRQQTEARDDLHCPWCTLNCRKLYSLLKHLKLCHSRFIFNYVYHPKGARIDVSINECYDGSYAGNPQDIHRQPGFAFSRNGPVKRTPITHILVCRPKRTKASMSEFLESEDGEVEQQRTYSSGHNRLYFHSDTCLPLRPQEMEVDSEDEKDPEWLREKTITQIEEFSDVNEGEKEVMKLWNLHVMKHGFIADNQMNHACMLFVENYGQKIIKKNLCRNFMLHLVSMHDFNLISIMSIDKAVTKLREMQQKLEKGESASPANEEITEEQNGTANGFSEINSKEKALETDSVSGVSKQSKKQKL
- Sequence (Q09028 whole entry partner): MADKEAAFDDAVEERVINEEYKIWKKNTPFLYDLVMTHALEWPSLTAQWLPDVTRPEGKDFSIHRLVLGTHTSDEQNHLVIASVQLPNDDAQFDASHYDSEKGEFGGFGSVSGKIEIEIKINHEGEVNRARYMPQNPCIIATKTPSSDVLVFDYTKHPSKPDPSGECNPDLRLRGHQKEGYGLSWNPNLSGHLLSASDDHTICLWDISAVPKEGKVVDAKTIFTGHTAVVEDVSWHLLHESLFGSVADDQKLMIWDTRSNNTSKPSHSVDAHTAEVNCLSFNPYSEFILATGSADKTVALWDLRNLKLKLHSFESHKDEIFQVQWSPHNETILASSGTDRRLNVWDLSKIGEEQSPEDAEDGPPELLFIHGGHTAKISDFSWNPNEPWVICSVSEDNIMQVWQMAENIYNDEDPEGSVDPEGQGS
- Sequence (Q6ZN18 whole entry partner): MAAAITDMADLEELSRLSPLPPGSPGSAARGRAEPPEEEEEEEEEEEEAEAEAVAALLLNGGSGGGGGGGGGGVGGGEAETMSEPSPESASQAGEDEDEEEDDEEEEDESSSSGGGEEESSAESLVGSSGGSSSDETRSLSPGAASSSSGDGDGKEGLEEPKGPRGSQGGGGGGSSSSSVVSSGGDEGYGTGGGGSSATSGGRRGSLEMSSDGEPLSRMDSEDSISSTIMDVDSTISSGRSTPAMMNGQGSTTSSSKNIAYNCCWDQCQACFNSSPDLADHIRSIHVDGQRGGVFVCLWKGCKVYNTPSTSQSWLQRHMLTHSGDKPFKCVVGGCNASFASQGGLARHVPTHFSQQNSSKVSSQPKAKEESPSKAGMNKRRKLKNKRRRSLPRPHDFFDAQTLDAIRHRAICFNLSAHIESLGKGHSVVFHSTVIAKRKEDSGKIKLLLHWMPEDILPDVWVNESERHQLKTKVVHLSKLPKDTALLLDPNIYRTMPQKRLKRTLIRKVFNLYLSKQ
- experimental_protocol: In vitro methyltransferase activity test (LANCE Ultra);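 note: compounds tested as an 8-point threefold dilution series, fluorescence read after 1 h detection step at room temperature, IC50 derived from a four-parameter curve fit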
- condition_info: EZH2 Y641F IC50, Recombinant PRC2 (EZH2-Y641F), LANCE Ultra detection, 3 hours reaction
property_measured: pIC50
# pIC50 is unitless: minus log10 of the molar concentration; print number only

In: Item CCN(c1cc(-c2ccc(Oc3ccncc3)cc2)cc2c(NCc3c(C)cc(C)[nH]c3=O)nccc12)C1CCC(N(C)C)CC1 (stereo not drawn) has what recorded pIC50?
Out: 6.61

In: Item CCN(c1cc(Cl)cc2c(NCc3c(C)cc(C)[nH]c3=O)nccc12)C1CCC(N(C)CCOC)CC1 (stereo not drawn) has what recorded pIC50?
Out: 6.69

In: Item CCN(c1cc(Cl)cc2c(NCc3c(C)cc(C)[nH]c3=O)nccc12)C1CCN(C(=O)CC#N)CC1 has what recorded pIC50?
Out: 6.74
